- assayComment: yeast display, Sf9 membrane polyspecificity reagent, FACS + sequencing; frameworks hold sequencing errors
recordedEndpoint: polyreactivity (PSR sort gate)

Example sequences with recorded polyreactivity (PSR sort gate):
| sequenceEntry | polyreactivity (PSR sort gate) |
| --- | --- |
| QVQLVESGGGLVQAGGSLRLSCAASGSTFSGYAMGWYRQAPGKERELVAAINWNGGRTYYADSVKGRFTISRDNAKNTVYLQMYSLKPADTAVSYCNKQSPRGRSAVYKYDYWGQGTQVTVSS | high polyreactivity |
| QVQLVESGGGLVQAGGSLRLSCAASGSTFWGYTMGWYRQAPGKERELVAAISTIGGSTYYADSVKGRFTISRDNAKNTVYLQMNSLKPEDTAVYYCAAEVYTFSGTSWVKDGGYWGQGTQVTVSS | low polyreactivity |
| QVQLVESGGGLVQAGGSLRLSCAASGRTFSSYAMGWYRQAPGKERELVAAIDSGGNTYADSVKGRFTISRDNAKNTVYLQMNSLKPEDTAVYYCAVDGGEFSSYGYWGQGTQVTVSS | low polyreactivity |
| QVQLVESGGGLVQAGGSLRLSCAASGSIFWANAMGWYRQAPGKERELVAAISSSGGRTYYADSVKGRFTISRDNAKNTVYLQMNSLKPEDTAVYYCNKLRLAYYEQGDYWGQGTQVTVSS | high polyreactivity |
| QVQLVESGGGLVQAGGSLRLSCAASGRIFQYYAMGWYRQAPGKERELVAAISSRGGSTSYADSVKGRFTISRDKAKNTVYLQMNSLKPEDTAVYYCNAKSRISYWYDYWGQGTQVTVSS | high polyreactivity |
| HVQLVESGGGLVQAGGSLRLSCAASGFIFRGHVMGWYRQAPGKERELVAAISGGSTTYADSVKGRFTISRDNAKTTVYLQMNSLKPEDTAVYYCAKRDQDRTFPNGYWGQGTQVTVSS | high polyreactivity |
| QVQQQESGGGLVQAGGSLRQSYAASGYIFPSLAMGWYRQAPGKEREFVAAIGRGSTNNYADSVKGRFTISRDNAKNTAYQQMNSLKPEDTAVYYCAAAASPLTRHLYWGQGTQVTVSS | low polyreactivity |
| QVQLVESGGGLVQAGGSLRLSCAASGSIFTGYAMGWYRQAPGKERELVAAIRTRGGSTYYADSVKGRFTISRDNAKNTVYLQMNSLKPEDTAVYYCAKRYYGWYGNFDYWGQGTQVTVSS | high polyreactivity |

Batch: polyreactivity (PSR sort gate) for all items listed.
1. QVQLVESGGGLVQAGGSLRLSCAASGRIFRAYAMGWYRQAPGKERELVASISRSGGSTYYADSVKGRFTISRDNSKNTVYLQMYSLKPEDTAVYYCAAVQPVGLYPRTKYYYCGQGTQVTVSS
2. QVQLVDSGGGLVQAGGSLRLSCAASGSILAGNVMGWYRQAPGKERELVASITFRGSRTYYADSVKGRFTISRDNAKNTVYLQMNSLKPEDTAVYYCNADVWASGSRGEGYWGQGTQVTVSS
3. QVQLVESGGGLVQAGGSLRLSCAASGFTFAFYAMGWYRQAPGKERELVDAIRRTGSTNYADSVKGRFTISRDNAKNTVYLQMNSLKPEDNAVYYCAKTLWYDRGVGYWGQGTQVTVSS
4. QVQLVESGGGLVQAGGSLRLSCAASGRIFLQYAMGWYRPAPGKERELVAAISRSGGSTYYADSVKGRFTISRDTAKNSVYLQMNSQKPEDTAVYYCAAALFGNRYYYWGQGTQVTVSS
5. QVQLVESGGGLVQAGGSLRLSCAASGSIFGFYAMGWSRQAPGKERELVAAITSGARTTYADSVKGRFTISRDNAKNTVYLQMNSLKPEDTAVYYSNADTGLGSLDFDKRDYWGQGTQVTVSS
6. QVKLVESGGGLVQAGGSLRLSCPASGRIFYTNARGWSRQQPGQESEFVAAISYSGGTTYYADSVKGRFTISRDNAKNNVYLQMNSLKPEDTAVYYCARRYRSYYYRSKMDYWGQGTQVTVSS
7. QVQLVESGGGLVQAGGSLRLSCAASGFIFGSIVMGWYRQAPGKERELVAAISKRGGTTYYADSVKGRFTISRDNAKNPVYLQMNSLKPEDTAVYYCAVEWCFRRNGRMDYWGQGTQVTVSS

high polyreactivity
low polyreactivity
high polyreactivity
low polyreactivity
low polyreactivity
high polyreactivity
high polyreactivity

Dear reader, for each entry below, please note its polyreactivity (PSR sort gate).
1. QVQLVESGGGLVQAGGSLRLSCAASGFILYFNAMGWYRQAPGKERELVAAITSDGGSTYYADSVKGRFTISRDNAKNTVYLQMNSLKPEDTAVYYCAADASTWYTEEYWGQGTQVTVSS
2. QVQLVESGGGLVQAGGSLRLSCAASGRTFFYYTMGWYRQAPGKERELVAAITYSGTSTYYADSVKGRFTISRDNAKNTVYLQMNSLKPEDTAVYYCAADWYVTHQGYTSGIWYVEYDYWGQGTQVTVSS

1. low polyreactivity
2. low polyreactivity

Provide polyreactivity (PSR sort gate) for all items below, preserving their order.
1. QVQLVESGGGLVQAGGSLRLSCAASGFTFRNYAMGWYRQAPGKERELVAAISKRGGNTYYADSVKGRFTISRDNAKNTVYLQMNSLKPEDTAVYYCARKYFRTSNLYGYWGQGTQVTVSS
2. QVQLVESGGGLVQAGGSLRLSCAASGSTFAANAMGWYRQAPGKERELVAAITSSGGSTYYADSVKGRFTISRDNAKNTVYLQLNSLKPEVTAVYYCNKDIERYVRIYDSWGQGTQVTVSS
3. QVQLVESGGGLVQAGGSLRLSCAASGSTFYLYAMGWYRQAPGKERELVAAISYSDGSTYYADSVKGRFTISRDNAKNTVYLQMNSMKPEDTAVYYCAAQHYVRSSIPGFIYYYWGQGTQVNVSS
4. QVQLVESGGGLVQAGGSLRLSCAASGFIFGPNAMGWYRQAPGKERELVAAITLSGGSTYYADSVKGRFTISRDNAKNTVYLQMNSLKPEDTAVYYCATTYYHNYLLYGYWGQGTQVTVSS

high polyreactivity
low polyreactivity
high polyreactivity
low polyreactivity
